Attribute Measured: melting point

Solved entries:
c1cc(Nc2nncc3ccccc23)cc(-n2ccnc2)c1 | 135 to 137 °C
Cn1cncc1-c1cccc(Nc2ccc3ccccc3n2)c1 | 60 to 65 °C
c1ccc(Cc2nnc(Nc3cccc(-n4ccnc4)c3)c3ccccc23)cc1 | 214 to 217 °C
Cn1cncc1-c1cccc(Nc2nccc3ccccc23)c1 | 208 to 209 °C

Could you now consider this next compound?
Prompt: Return reported melting point. Input compound: c1cc(Nc2ccc(-n3cccc3)cn2)cc(-n2ccnc2)c1
Completion: 152 to 156 °C

* * *

Each entry below carries its recorded melting point.

Here's what some known entries look like.
Cc1ncc(-c2cccc(Nc3ncnc4c3CCOc3ccccc3-4)c2)n1C | 235 to 237 °C
c1cc(Nc2nnc3c4c(cccc24)-c2ccccc2-3)cc(-n2ccnc2)c1 | 223 to 226 °C
c1ccc2c(c1)-c1cccc3c(NCCCCNc4nccc5ccccc45)nnc-2c13 | 95 to 105 °C

Prompt: Tell me melting point reported for CS(=O)(=O)O.N=C(Nc1cccc(Nc2noc3ccccc23)c1)c1ccccc1
Completion: 113 to 115 °C

Prompt: Provide measured melting point value, entry: c1cc(Nc2nccc3ccccc23)cc(-n2ccnc2)c1
Completion: 164 to 167 °C

* * *

The entries below come with measured melting point values attached.

c1ccc2c(N[C@H]3CC[C@H](Nc4nccc5ccccc45)CC3)nccc2c1 | 278 to 280 °C
c1ccc2c(NCCCCNc3nccc4ccccc34)nccc2c1 | 189 to 192 °C
I.N=C(Nc1cccc(Nc2nnc3c4c(cccc24)-c2ccccc2-3)c1)c1ccccc1 | 183 to 186 °C

Here's the next entry for you.
Prompt: Using known records, supply melting point for c1cc(CNc2nccc3ccccc23)cc(Nc2nnc3c4c(cccc24)-c2ccccc2-3)c1
Completion: 149 to 152 °C
